# Target or system: pooled human IgG (human IgG1, 2, 3 and 4) (human); note: test concentration or dose not given here
# Experimental details: cell-based or functional assay
Measured property: Enzyme Activity Endpoint Assay: scIgG (ng/µL)

Binder: PRT-288 (enzyme) MVTSVWTKGVTPPAKFTQGEDVFHAPYDANQGWYDITKEFNGKDDLLCGAATAGNMLHWWFDQNKEKIEAYLKKHPDKQKIMFGDQELLDVRKVINTKGDQTNSELFNYFRDKAFPNLSARRIGVMPDLVLDMFINGYYLNVYKTQTTDVNRTYQEKDRRGGIFDAVFTRGDQSKLLTSRHDFKEKNLKEISDLIKKELTEGKALGLSHTYANVRIGHVINLWGADFDSNGNLKAIYVTDSDSNASIGMKKYGVGVNSAGKVAISAKEIKEDNIGAQVLGLFTLSTGQDSWNQTN
Measured result: 0

Binder: PRT-425 (enzyme) MTITSVWTKGVTPPTPEDFRYNNEDVLHAPYVANQGWYDITKTFDGKDNLLCGAATAGNMLHWWFDQNKEEIERYLKKHPEKQKIIFNNQELFDVKAAIDTKDSQTNSKLFNYFRDKAFPGLSARQLGVMPDLVLDMFINGYYLNLGKTQSTDVNRPYQDKDKRGGIFDAVFTRGDQTTLLTARHDLKNKGLNEISDLIKQELTEGKALALSHTYANVRINHVINLWGADFDAEGNLIAIYVTDSDANASIGMKKYFVGVNANGKVAISAKKIEGDNIGAQVLGLFTLSTGQDIWQKLS
Measured result: 0
